Every entry's value here was drawn from the EternaBench riboswitch data.

- Test system: MS2 coat protein
- assay.summary: apparent Kd, MS2 coat protein; higher = weaker binding; RNA-MaP array
- recorded.conditions: ligand present: flavin mononucleotide; designed as: ON switch for flavin mononucleotide
Measured apparent Kd of individual entries
endpoint.label: apparent Kd (nM)

1. CUUCUUCGUGCAGGAUAUAAGGGAACACGAUGACAUGAGGAUCACCCAUGUUCUAUAAGCAGGCUUUAGAAGGGCAUUUUGGAU; 20.1
2. AGAACCCAGUAAGGAUAUGAUGAGUCUAUACAACAUGAGGAUCACCCAUGUCCGAGGAAACUAGAUCAGAAGGUACAAGAAAAG; 17.6
3. GCACUUAUAGCAGGAUAUCUUUAAACACCGAAAGGUAGCGGUACAUGAGGAUCACCCAUGUCAACAGAGAAGGGCUCAUAGUCU; 8.63
4. GGAAAACACAAGAAGGCGUCGGACUGGGCGAGACGAGGAUAUUGUAGCUCUAAUCGUGGACAGACAUGAGGAUCACCCAUGUCG; 6.18
